Measured surface tension liquid-gas accompanies every entry in the list below.
settings: 303.15 K, Ring tensiometer
Field: numeric (mN/m). Do not append units.

Please review the following examples before continuing.
// query Look up and report measured surface tension liquid-gas for this entry: CCCCCCCCn1cc[n+](C)c1.O=S(=O)([N-]S(=O)(=O)C(F)(F)F)C(F)(F)F
// result 31.3

// query Entry CCCC[n+]1ccn(C)c1.O=S(=O)([N-]S(=O)(=O)C(F)(F)F)C(F)(F)F needs its surface tension liquid-gas filled in; supply it.
// result 33.09

// query Supply measured surface tension liquid-gas of CCCCCC[n+]1ccn(C)c1.O=S(=O)([N-]S(=O)(=O)C(F)(F)F)C(F)(F)F in your reply.
// result 31.76

// query Note down surface tension liquid-gas recorded for CCCCCn1cc[n+](C)c1.O=S(=O)([N-]S(=O)(=O)C(F)(F)F)C(F)(F)F
// result 32.41

// query For the compound CCCCCCCCCCn1cc[n+](C)c1.O=S(=O)([N-]S(=O)(=O)C(F)(F)F)C(F)(F)F , report surface tension liquid-gas.
// result 31.34

Next:
// query Hello, please tell me recorded surface tension liquid-gas for this one: CCCn1cc[n+](C)c1.O=S(=O)([N-]S(=O)(=O)C(F)(F)F)C(F)(F)F
// result 34.22

// query Look up and state reported surface tension liquid-gas for CCCCCCCn1cc[n+](C)c1.O=S(=O)([N-]S(=O)(=O)C(F)(F)F)C(F)(F)F
// result 31.36

// query Specify surface tension liquid-gas for CCn1cc[n+](C)c1.O=S(=O)([N-]S(=O)(=O)C(F)(F)F)C(F)(F)F and stop.
// result 36.43
